- Test system: NOMO1
- assayComment: AUC of viability dose-response curve (% viability x log10 dose units); higher = less sensitive
- assayConditions: RPMI 5 mM glucose + 10% FBS; 48 h
Let's look at some compounds and their measured AUC of viability dose-response curve.
Answer with a number only.

compound	AUC of viability dose-response curve
C[C@](O)(CS(=O)(=O)c1ccc(F)cc1)C(=O)Nc1ccc(C#N)c(C(F)(F)F)c1	460
CCN1\C=C(\C(O)=O)C(=O)C2=C1C=C(N3CCNCC3)C(=C2)F	465
CCNC(=O)C[C@H]1/N=C(/C2=CC=C(Cl)C=C2)C3=CC(=CC=C3[N]4C(=NN=C14)C)OC	461
CC(C)(O)CC[C@@H](O)[C@](C)(O)[C@H]1CC[C@@]2(O)C/3=C/C(=O)[C@@H]4C[C@@H](O)[C@@H](O)C[C@]4(C)[C@H]3CC[C@]12C	421
COc1cc(OC2CCN(C)CC2)ccc1Nc1ncc2c(n1)n(C1CCCC1)c(=O)n2C	373

Look up AUC of viability dose-response curve: CN[C@@H]1[C@@H](O)[C@@H](O[C@@H]2[C@@H](O)[C@H](O[C@H]3O[C@H](CN)[C@@H](O)[C@H](O)[C@H]3O)[C@@H](N)C[C@H]2NC(=O)[C@@H](O)CN)OC[C@]1(C)O
457

Requested read-out: AUC of viability dose-response curve. Entry: CN(C)[S+](=O)([O-])c1ccc2c(c1)C(=Cc1cc3c([nH]1)CCCC3)C(=O)N2
453
